Run description: folding stability dG unfold from trypsin proteolysis; higher = more stable
Quantity kind: folding stability dG unfold (kcal/mol)
Give the quantity in kcal/mol, number only.

Observe how each entry below is paired with its result.
Look at this sequence and give its reported folding stability dG unfold. SAGGSAGGSAGTLEALKNLKPGETVTLRVELRVERRYLDPNGKEHTEEVSTVTLELTLKPSAGGSAGGSAGG [r11_36_TrROS_Hall] 3.22

And for SSAEEIVEKLKKELEEKLPEDYKITSVTLTKSPDGIVTAPMTIKSSDGVESTVTVTYDLKTGKITIEVNSSA [r9_219_JUSTAS] ? 3.42

And for SAGGMKVIEVEMTADEVKALVKELAEKDDLKIYIYVDGKKIELTVDEIKKIPPENQKVTIIIEKKKESAGGS [r16_628_TrROS_Hall] ? 2.95

New cases:
Look at this sequence and give its reported folding stability dG unfold. SAGGSAGGSAGEVTVPAVVPPDAVPEVVEAVERLGARAEVEWDPETGLYRVNITFDGEVGSAGGSAGGSAGG [r11_1043_TrMRF] -0.00326

And for SAGGSAGGSAGGGMTTVTIEVPPELSEEEVRRAAAELVAAGRPVPVTVERLPEDRVVVVTSAGGSAGGSAGG [r7_283_JUSTAS] ? 0.68

And for SAGGSAGGSAGGPPVTLLVVVRNEDGSLYLVRVEFDLETNEVKVEVFTLDDLKNLPEELSAGGSAGGSAGGS [r10_1077_TrROS_Hall] ? 2.14

---

Run description: folding stability dG unfold from chymotrypsin proteolysis; higher = more stable
List of folding stability dG unfold values.
Give the quantity in kcal/mol, number only.

Look at this sequence and give its reported folding stability dG unfold. SKPNLEVKEVEIKMTAEEIKKLLKPNVTKIEKVNGKYYVTVKVNGVLVKIEIKYDKETNEVTVKIYVIKPSA [r9_604_TrROS_Hall] 3.12

And for SAGGMKLTVEIEYDEETEEVTIRIRNEETGEEIEITLSKEEVEKLLEALEKNPEKSIEEALLEALKESAGGS [r8_484_TrROS_Hall] ? 2.33

And for SAGGSAGGSAGYKPGEVVYIEVEDPETGKSLKVPVKVPENMTPEQAKKLAEEAAKKYREGSAGGSAGGSAGG [r11_355_TrMRF] ? 2.22

And for SAGGSAGGKKKKKPPKKKYFYVEIEIELTPEEIEKLKELFPDVKVEVEEKDGKLRVRITVRVKLSAGGSAGG [r6_685_TrROS_Hall] ? 3.48

And for SMKKVLIVTPNPEINPEEVVKALKEKGFKEIKVFSTPEELKEALPEYDIVIIEENGKLYIKYIPPGKLAKSA [r9_750_TrMRF] ? 1.79

And for SASSELLELLKALPTPEVPTDPIFTLEEPDRPIRVLSYDPETGLVTMLIPGTGARLIRDPASGTYTLLPSAG [r14_359_JUSTAS] ? 0.92

New cases:
Look at this sequence and give its reported folding stability dG unfold. SAGGSAGGKPKMTFPITDIYPPPGGGNVFIRIQSDDKPREFPFPNLENLEIEKDPEDGTVKIKWSAGGSAGG [r6_806_TrROS] 0.307

---

List of folding stability dG unfold values.
Run description: folding stability dG unfold from chymotrypsin proteolysis; higher = more stable
Give the quantity in kcal/mol, number only.

Observe how each entry below is paired with its result.
Look at this sequence and give its reported folding stability dG unfold. VDPDDPEYQRFVYFVQELAKTIVEEHQEEGPTVDELYITVDPNNVKIEPVDMPPDEWEEHQKEGRPVIPIRS [r1_134_TrROS] 0.187

And for SAGGEKATVTVVYDPEKGYVVVPVDIPFLDENGKPKKLKLVFVLPASPEAEEAVKELAKELGLESVESAGGS [r8_381_TrMRF] ? 2.38

And for SAGGETVEIEVEMSPEEVREAIKKAAEALDAEVVEVKYDKETKKVTITVKKGATEEELRKALEEALKSAGGS [r8_338_TrROS_Hall] ? 1.78

New cases:
Look at this sequence and give its reported folding stability dG unfold. SAGGSATKVIYGMSVEEIRAAIKAGAKKIIIVADTEEQKKAAAEELEKEYNIKIEVKKIKPKKKKKSAGGSA [r15_243_TrROS_Hall] 2.22

Where do these numbers come from? They come from the supplement of paper PMC12764529.
